system tested: UniProt:P32305
experimental protocol: Displacement of [3H]5-CT from rat 5-HT7 receptor expressed in HEK293 cell membranes by radioligand binding assay
measurement label: Ki (nM)
Field format: number, assumed nM, no unit text.

(Q) Looking for the measured Ki of Clc1ccc(-c2nn(Cc3ccccc3)c3c2CCNCC3)cc1 [JNJ-18038683 FREE BASE] , can you help?
(A) 6.5

====

system tested: 5-hydroxytryptamine receptor 7 (Homo sapiens, UniProt P34969)
Sequence (P34969 whole entry): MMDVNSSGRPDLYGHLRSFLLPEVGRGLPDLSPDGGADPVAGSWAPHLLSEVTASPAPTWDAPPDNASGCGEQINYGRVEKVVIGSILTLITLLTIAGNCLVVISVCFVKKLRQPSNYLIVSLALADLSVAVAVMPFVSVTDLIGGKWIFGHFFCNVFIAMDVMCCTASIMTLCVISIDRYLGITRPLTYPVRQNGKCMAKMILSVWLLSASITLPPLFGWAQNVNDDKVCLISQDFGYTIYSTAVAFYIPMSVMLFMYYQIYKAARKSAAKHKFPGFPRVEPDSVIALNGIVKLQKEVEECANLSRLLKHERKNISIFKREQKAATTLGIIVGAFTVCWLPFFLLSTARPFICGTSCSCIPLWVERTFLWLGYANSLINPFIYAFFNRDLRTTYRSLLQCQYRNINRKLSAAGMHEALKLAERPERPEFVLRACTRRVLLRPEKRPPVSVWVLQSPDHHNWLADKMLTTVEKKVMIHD
measurement label: Ki (nM)
Field format: number, assumed nM, no unit text.

A selection of reference data follows.
Cc1nn(C)c(C)c1-c1cccc(CCN(C)C)c1
2.5
CNC(=O)CN1c2ccccc2C2CCN(CCCCC34CCCc5cccc(c53)NC4=O)CC21 (stereo not drawn)
4

The record that follows has no Ki shown yet.
(Q) Notebook entry, 5-hydroxytryptamine receptor 7 (Homo sapiens, UniProt P34969) assay: Ki of Cc1nn(C)c(C)c1-c1ccc(O)c(CCN(C)C)c1 = ?
(A) 0.47

====

system tested: 5-hydroxytryptamine receptor 7 (Rattus norvegicus)
Sequence (P32305 whole entry): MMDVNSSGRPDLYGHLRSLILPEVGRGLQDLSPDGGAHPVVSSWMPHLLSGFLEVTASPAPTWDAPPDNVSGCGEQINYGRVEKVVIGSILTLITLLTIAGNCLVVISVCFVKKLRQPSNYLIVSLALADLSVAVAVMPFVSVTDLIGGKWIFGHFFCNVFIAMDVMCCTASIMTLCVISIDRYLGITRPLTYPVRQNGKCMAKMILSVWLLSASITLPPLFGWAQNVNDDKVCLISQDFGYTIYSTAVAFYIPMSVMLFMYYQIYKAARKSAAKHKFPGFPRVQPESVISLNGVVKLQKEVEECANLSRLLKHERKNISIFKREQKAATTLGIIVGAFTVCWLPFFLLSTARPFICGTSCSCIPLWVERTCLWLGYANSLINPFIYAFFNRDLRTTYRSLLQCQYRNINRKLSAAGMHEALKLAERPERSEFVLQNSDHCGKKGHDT
experimental protocol: Displacement of [3H]lysergide from rat recombinant 5-HT7 receptor expressed in HEK293 cell membranes incubated for 60 mins by radioligand binding assay
Listing of recorded pKi by entry.
Reminder that pKi means the negative base-10 logarithm of the concentration expressed in mol/L.

COc1cccc(CCN2CCN(c3ccccc3-c3ccccc3)CC2)c1
8.12

The record that follows has no pKi shown yet.
(Q) Notebook entry, 5-hydroxytryptamine receptor 7 (Rattus norvegicus) assay: pKi of COc1cccc(CCN2CCN(c3ccccc3OC)CC2)c1 = ?
(A) 7.61

====

experimental protocol: Ratio of drug level in brain to plasma in mouse at 5 mg/kg, ip
Format: ADME, organism-based
applied conditions: read-out: BPR
measurement label: Kp
Enter the number alone.

(Q) Looking for the measured Kp of CCn1cncc1-c1c[nH]c2ccc(OC)cc12 , can you help?
(A) 6.34

====

experimental protocol: Intrinsic clearance in human liver microsomes
Assay type: ADME, microsome
applied conditions: read-out: CLH
measurement label: CLint scaled (mL/min/kg)
Field format: number, assumed mL/min/kg, no unit text.

CCn1cncc1-c1c[nH]c2ccc(I)cc12
6.3

The record that follows has no CLint scaled shown yet.
(Q) Looking for the measured CLint scaled of CCn1cncc1-c1c[nH]c2ccc(OC)cc12 , can you help?
(A) 3.69

====

system tested: 5-hydroxytryptamine receptor 1A (Rattus norvegicus)
Sequence (P19327 whole entry): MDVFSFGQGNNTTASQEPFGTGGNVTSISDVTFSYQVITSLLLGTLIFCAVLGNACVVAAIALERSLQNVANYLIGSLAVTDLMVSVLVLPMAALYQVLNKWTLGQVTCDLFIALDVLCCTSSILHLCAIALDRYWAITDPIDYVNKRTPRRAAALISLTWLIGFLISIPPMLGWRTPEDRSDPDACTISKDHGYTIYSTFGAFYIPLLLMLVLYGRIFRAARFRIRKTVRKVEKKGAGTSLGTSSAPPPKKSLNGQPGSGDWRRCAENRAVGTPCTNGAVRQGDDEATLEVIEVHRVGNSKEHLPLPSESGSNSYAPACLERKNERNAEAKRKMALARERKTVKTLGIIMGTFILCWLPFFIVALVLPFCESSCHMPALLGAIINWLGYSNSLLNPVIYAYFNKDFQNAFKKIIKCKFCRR
measurement label: Ki (nM)
Field format: number, assumed nM, no unit text.

COc1cccc(CCN2CCN(c3ccccc3OC)CC2)c1
2.37

The record that follows has no Ki shown yet.
(Q) Looking for the measured Ki of COc1cccc(CCN2CCN(c3ccccc3-c3ccccc3)CC2)c1 , can you help?
(A) 20
